Cited source: paper PMC10397247

system name: T1, P6-AA-12HAA-E
T1 chain: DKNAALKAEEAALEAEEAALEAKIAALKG
test name: two-hybrid library CCmax;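 note: natural log of median RNA to DNA barcode read ratio; higher means stronger binding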
applied conditions: mean of both orientations
assay endpoint: interaction score

binder	interaction score
DENAALEAKYAALKAKYAALKAEIAALEG [P5-AA-12HAA-Y]	-1.65
DENAALEAKRAALKAKRAALKAEIAALEG [P5-AA-12HAA-R]	-1.43
DENAALEAKSAALKAKSAALKAEIAALEG [P5-AA-12HAA-S]	-1.88
DENAALEAKAAALKAKAAALKAEIAALEG [P5-AA-12HAA-A]	-1.81
